# System: human androgen receptor (Homo sapiens, UniProt P10275)
# Construct: expressed in transfected cells
# Sequence (P10275 1-920): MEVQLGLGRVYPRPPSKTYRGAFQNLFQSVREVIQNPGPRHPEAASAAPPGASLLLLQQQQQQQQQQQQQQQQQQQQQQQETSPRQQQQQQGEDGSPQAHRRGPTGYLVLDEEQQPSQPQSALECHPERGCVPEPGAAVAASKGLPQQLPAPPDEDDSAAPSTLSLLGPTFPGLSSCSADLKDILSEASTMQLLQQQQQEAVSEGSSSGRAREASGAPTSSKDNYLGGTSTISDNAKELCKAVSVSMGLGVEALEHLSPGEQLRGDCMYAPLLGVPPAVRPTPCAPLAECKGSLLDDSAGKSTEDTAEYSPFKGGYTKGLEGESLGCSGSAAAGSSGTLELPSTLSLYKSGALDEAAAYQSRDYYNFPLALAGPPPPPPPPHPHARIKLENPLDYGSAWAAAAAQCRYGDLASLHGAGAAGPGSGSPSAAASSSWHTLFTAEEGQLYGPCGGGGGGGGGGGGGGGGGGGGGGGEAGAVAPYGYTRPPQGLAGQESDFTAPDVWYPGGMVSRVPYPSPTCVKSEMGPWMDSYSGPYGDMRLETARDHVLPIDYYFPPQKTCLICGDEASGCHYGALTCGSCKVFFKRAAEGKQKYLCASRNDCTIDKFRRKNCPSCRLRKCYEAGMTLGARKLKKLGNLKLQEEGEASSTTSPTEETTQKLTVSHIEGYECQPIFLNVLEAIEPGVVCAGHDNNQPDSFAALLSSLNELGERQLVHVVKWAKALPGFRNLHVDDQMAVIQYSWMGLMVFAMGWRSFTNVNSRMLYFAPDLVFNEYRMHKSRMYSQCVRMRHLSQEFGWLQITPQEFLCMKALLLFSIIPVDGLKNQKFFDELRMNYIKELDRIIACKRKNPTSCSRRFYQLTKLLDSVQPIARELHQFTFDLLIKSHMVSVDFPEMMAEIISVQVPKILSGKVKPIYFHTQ
# Protocol summary: Investigation of antagonist effect on androgen receptor (reporter gene assay, 11A11B2 cells, with DHT)
# Format: cell-based
# Assay setup: with 0.1 nmol/L DHT; transcription activity rate of Test Example 1 subtracted; 11A11B2 cells, 48 hours; read-out: IC50
Strictly below 400 nM in IC50: criterion met. Otherwise: criterion not met.

Query: Item `CCCOC(=O)Nc1cc(N2C(=O)N(c3ccc(C#N)c(OC)c3)C(=O)C2(C)C)ccc1Cl` : IC50 beneath 400 nM, strictly?
Result: criterion met

Query: Please let me know if `CC(=O)N1CCC(N2C(=S)N(c3ccc(C#N)c(C(F)(F)F)c3)C(=O)C2(C)C)CC1` shows IC50 below 400 nM.
Result: criterion met

Query: Hello, I'm reviewing records and need to know if IC50 of CC1(C)C(=O)N(c2ccc(C#N)c(Cl)c2)C(=S)N1c1ccc2sc(NC(=O)OCC(O)CO)nc2c1 (stereo not shown) is below 400 nM. Could you check?
Result: criterion met

Query: I'd appreciate it if you could check whether `CCNS(=O)(=O)N1CCC(N2C(=S)N(c3ccc(C#N)c(C(F)(F)F)c3)C(=O)C2(C)C)CC1` has IC50 smaller than 400 nM.
Result: criterion not met

Query: Please let me know if `CC1(C)C(=O)N(c2ccc(C#N)c(C(F)(F)F)c2)C(=O)N1c1ccc(Cl)c(NC(=O)OCCN)c1` shows IC50 below 400 nM.
Result: criterion not met

Query: Threshold test, IC50 < 400 nM: `CCOC(=O)Nc1cc(N2C(=O)N(c3ccc(C#N)c(OC)c3)C(=O)C2(C)C)ccc1Cl`
Result: criterion met

Query: Dear colleague, could you confirm whether IC50 of `CCS(=O)(=O)N1CCC(N2C(=O)N(c3ccc(C#N)c(C(F)(F)F)c3C)C(=O)C2(C)C)CC1` falls below 400 nM? Thanks.
Result: criterion not met

Query: Is it true that IC50 reported for `CCCNC(=O)N1CCC(N2C(=S)N(c3ccc(C#N)c(C(F)(F)F)c3)C(=O)C2(C)C)CC1` is less than 400 nM?
Result: criterion not met

Query: I'd appreciate it if you could check whether `COC(=O)Nc1cc(N2C(=O)N(c3ccc(C#N)c(OC)c3)C(=O)C2(C)C)ccc1F` has IC50 smaller than 400 nM.
Result: criterion not met

Query: # strict comparison: is reported IC50 < 400 nM? input = `CCCS(=O)(=O)N1CCC(N2C(=O)N(c3ccc(C#N)c(Cl)c3C)C(=O)C2(C)C)CC1`
Result: criterion met

Query: Could you please tell me whether IC50 recorded for `COc1cc(N2C(=O)C(C)(C)N(c3ccc(Cl)c(NC(=O)OCCO)c3)C2=S)ccc1C#N` is less than 400 nM?
Result: criterion not met

Query: Consider `CN(C)CCOC(=O)Nc1nc2cc(N3C(=S)N(c4ccc(C#N)c(Cl)c4)C(=O)C3(C)C)ccc2s1` . Does its IC50 lie strictly below 400 nM?
Result: criterion met

Query: I wonder whether `COc1cc(N2C(=O)C(C)(C)N(c3ccc4sc(NC(N)=O)nc4c3)C2=S)ccc1C#N` has IC50 below 400 nM. Can you tell?
Result: criterion met

Query: A record lists `CN1CCN(CCOC(=O)Nc2cc(N3C(=O)N(c4ccc(C#N)c(C(F)(F)F)c4)C(=O)C3(C)C)ccc2Cl)CC1` . Is its IC50 below 400 nM?
Result: criterion not met

Query: Quick check: IC50 of `CC1(C)C(=O)N(c2ccc(C#N)c(C(F)(F)F)c2)C(=O)N1c1ccc(NC(=O)CN2CCNCC2)c(Cl)c1` under 400 nM?
Result: criterion not met

Query: Criterion: IC50 strictly below 400 nM. Is it met by `CC(=O)Nc1cc(N2C(=S)N(c3ccc(C#N)c(C(F)(F)F)c3)C(=O)C2(C)C)ccc1Cl` ?
Result: criterion met

Query: Please let me know if `CC1(C)C(=O)N(c2ccc(C#N)c(C(F)(F)F)c2)C(=S)N1c1ccc(NC(=O)OCCO)nc1` shows IC50 below 400 nM.
Result: criterion met

Origin of values: patent US8470829B2
